meta.source: paper PMC12087695

test: Plasma pharmacokinetics of cocktail index drugs and their metabolites, five-phase crossover trial; conditions: phase II: Geneva cocktail
observable: Cmax, geometric mean (geometric CV)

Recorded Cmax, geometric mean (geometric CV) (compound COc1ccc2[nH]c([S+]([O-])Cc3ncc(C)c(OC)c3C)nc2c1 (centres unmarked) ): 144 (88.5%) ng/mL

====

test: Plasma pharmacokinetics of pretreatment drugs clopidogrel, gemfibrozil and their metabolites; format: in vivo; details: human, after clopidogrel 300 mg single oral dose (phase IV), read-out: AUC0-24h, geometric mean (90% CI)
observable: AUC(0-t) (ng·h/mL)
Give the quantity in ng·h/mL, number only.

Recorded AUC(0-t) (compound COC(=O)[C@H](c1ccccc1Cl)N1CCc2sccc2C1 ): 11.6

====

assay: Plasma pharmacokinetics of cocktail index drugs and their metabolites, five-phase crossover trial; details: phase IV: clopidogrel 300 mg pretreatment + full cocktail
Below is a list of entries, each paired with its recorded t1/2, geometric mean (geometric CV) value.

Sample records with t1/2, geometric mean (geometric CV):
>>> df
                                   compound                           observable  observed_result
0  C[C@H]1NC(C)(C)CO[C@]1(O)c1cccc(Cl)c1 [OH-bupropion, hydroxybupropion]  t1/2, geometric mean (geometric CV)   34.6 (42.9%) h
1  COc1ccc2[nH]c([S+]([O-])Cc3ncc(C)c(OC)c3C)nc2c1 (stereo not shown)  t1/2, geometric mean (geometric CV)   0.69 (30.9%) h
2  COc1ccc2nc([S+]([O-])Cc3ncc(CO)c(OC)c3C)[nH]c2c1 (stereo not shown) [5’-OH-omeprazole, 5′‐hydroxyomeprazole]  t1/2, geometric mean (geometric CV)   1.04 (15.5%) h

Read the next record carefully.
Recorded t1/2, geometric mean (geometric CV) (compound OCc1ncc2n1-c1ccc(Cl)cc1C(c1ccccc1F)=NC2 [1’-OH-midazolam, 1′‐hydroxymidazolam] ): 1.46 (26.6%) h

====

test: Plasma pharmacokinetics of cocktail index drugs and their metabolites, five-phase crossover trial; settings: phase IV: clopidogrel 300 mg pretreatment + full cocktail
Below is a list of entries, each paired with its recorded Tmax, median (range) value.

Sample records with Tmax, median (range):
>>> print(df.to_string())
                                   molecule            observable  observed_result
0  OCc1ncc2n1-c1ccc(Cl)cc1C(c1ccccc1F)=NC2 [1’-OH-midazolam, 1′‐hydroxymidazolam]  Tmax, median (range)  1.0 (0.5-1.0) h
1    Cc1ncc2n1-c1ccc(Cl)cc1C(c1ccccc1F)=NC2  Tmax, median (range)  1.0 (0.5-1.0) h
2  COc1ccc2nc([S+]([O-])Cc3ncc(CO)c(OC)c3C)[nH]c2c1 (centres unmarked) [5’-OH-omeprazole, 5′‐hydroxyomeprazole]  Tmax, median (range)  1.5 (1.0-3.0) h

Recorded Tmax, median (range) (molecule C[C@H]1NC(C)(C)CO[C@]1(O)c1cccc(Cl)c1 [OH-bupropion, hydroxybupropion] ): 4.0 (1.5-12.0) h

Recorded Tmax, median (range) (molecule COc1ccc2c(c1)[C@]13CCCC[C@@H]1[C@H](C2)N(C)CC3 ): 2.0 (2.0-3.0) h

====

test: Plasma pharmacokinetics of cocktail index drugs and their metabolites, five-phase crossover trial; settings: human, plasma, oral, AUC0-12h, geometric mean (geometric CV), phase IV: clopidogrel 300 mg pretreatment + full cocktail
observable: AUC(0-t) (ng·h/mL)
Give the quantity in ng·h/mL, number only.

Recorded AUC(0-t) (molecule Cn1c(=O)[nH]c2ncn(C)c2c1=O ): 3940

====

experiment: clinical; conditions: human, in vivo, Cmax, geometric mean (geometric CV), phase V: gemfibrozil 600 mg b.i.d. 3 days pretreatment + full cocktail
observable: Cmax (ng/mL)
Give the quantity in ng/mL, number only.

Sample records with Cmax:
                                   compound  observed_result
0    Cc1ncc2n1-c1ccc(Cl)cc1C(c1ccccc1F)=NC2             3.25
1  CN1CC[C@@]23CCCC[C@@H]2[C@@H]1Cc1ccc(O)cc13             3.63
2  CCOc1cc(CC(=O)N[C@@H](CC(C)C)c2ccccc2N2CCCCC2)ccc1C(=O)O [Repaglinide, repaglinide]             2.08

Recorded Cmax (compound COc1ccc2[nH]c([S+]([O-])Cc3ncc(C)c(OC)c3C)nc2c1 (stereo not drawn) ): 98

Recorded Cmax (compound COc1ccc2c(c1)[C@]13CCCC[C@@H]1[C@H](C2)N(C)CC3 ): 0.898

Recorded Cmax (compound CC(C(=O)O)c1ccc(-c2ccccc2)c(F)c1 (stereo not drawn) ): 1110

====

assay: clinical; conditions: human, in vivo, AUC0-∞, geometric mean (geometric CV), phase IV: clopidogrel 300 mg pretreatment + full cocktail
Checkbox rule: AUC(0-inf) lower than 10 ng·h/mL = condition met; AUC(0-inf) not lower than 10 ng·h/mL = condition not met.

                                   compound     classification
0  Cc1ncc2n1-c1ccc(Cl)cc1C(c1ccccc1F)=NC2 [Midazolam, midazolam]  condition not met

Dear reviewer, please state whether COc1ccc2[nH]c([S+]([O-])Cc3ncc(C)c(OC)c3C)nc2c1 (stereo not drawn) [Omeprazole, omeprazole] has AUC(0-inf) strictly beneath 10 ng·h/mL. condition not met

Dear reviewer, please state whether CCOc1cc(CC(=O)N[C@@H](CC(C)C)c2ccccc2N2CCCCC2)ccc1C(=O)O [Repaglinide, repaglinide] has AUC(0-inf) strictly beneath 10 ng·h/mL. condition met

Dear reviewer, please state whether CC(C(=O)O)c1ccc(-c2ccccc2)c(F)c1 (stereo not drawn) [Flurbiprofen, flurbiprofen] has AUC(0-inf) strictly beneath 10 ng·h/mL. condition not met

Dear reviewer, please state whether COc1ccc2c(c1)[C@]13CCCC[C@@H]1[C@H](C2)N(C)CC3 [Dextromethorphan, dextromethorphan] has AUC(0-inf) strictly beneath 10 ng·h/mL. condition met

====

assay: clinical; details: human, in vivo, AUC0-23h, geometric mean (geometric CV), phase II: Geneva cocktail
I would appreciate it if you labelled entries yes (1) when AUC(0-t) is 80 ng·h/mL or higher, otherwise no (0).

Dear colleague, could you confirm whether COc1ccc2[nH]c([S+]([O-])Cc3ncc(C)c(OC)c3C)nc2c1 (stereo not shown) [Omeprazole, omeprazole] has AUC(0-t) at or above 80 ng·h/mL? yes (1)

Dear colleague, could you confirm whether COc1ccc2c(c1)[C@]13CCCC[C@@H]1[C@H](C2)N(C)CC3 [Dextromethorphan, dextromethorphan] has AUC(0-t) at or above 80 ng·h/mL? no (0)

Dear colleague, could you confirm whether CC(NC(C)(C)C)C(=O)c1cccc(Cl)c1 (stereo not shown) [Bupropion, bupropion] has AUC(0-t) at or above 80 ng·h/mL? no (0)

Dear colleague, could you confirm whether CN1CC[C@@]23CCCC[C@@H]2[C@@H]1Cc1ccc(O)cc13 [Dextrorphan, dextrorphan] has AUC(0-t) at or above 80 ng·h/mL? no (0)

Dear colleague, could you confirm whether Cc1ncc2n1-c1ccc(Cl)cc1C(c1ccccc1F)=NC2 [Midazolam, midazolam] has AUC(0-t) at or above 80 ng·h/mL? no (0)

Dear colleague, could you confirm whether CC(C(=O)O)c1ccc(-c2ccc(O)cc2)c(F)c1 (stereo not shown) [4’-OH-flurbiprofen, 4′‐hydroxyflurbiprofen] has AUC(0-t) at or above 80 ng·h/mL? yes (1)

Dear colleague, could you confirm whether CC(C(=O)O)c1ccc(-c2ccccc2)c(F)c1 (stereo not shown) [Flurbiprofen, flurbiprofen] has AUC(0-t) at or above 80 ng·h/mL? yes (1)

====

test: clinical; settings: human, in vivo, 0.05 mg, AUC0-23h, geometric mean (geometric CV), phase I: repaglinide 0.05 mg alone
observable: AUC(0-t)
Report field: quantity (unit follows the number).

Recorded AUC(0-t) (compound CCOc1cc(CC(=O)N[C@@H](CC(C)C)c2ccccc2N2CCCCC2)ccc1C(=O)O [Repaglinide, repaglinide] ): 1.01 ng·h/mL

====

test: clinical; settings: human, in vivo, Tmax, median (range), phase II: Geneva cocktail
observable: Tmax (h)
Give the quantity in h, number only.

In [3]: df
Out[3]:
                                   compound  observable  quantity_unit  observed_result
0  CN1CC[C@@]23CCCC[C@@H]2[C@@H]1Cc1ccc(O)cc13        Tmax              h                2

Read the next record carefully.
Recorded Tmax (compound CC(C(=O)O)c1ccc(-c2ccc(O)cc2)c(F)c1 (centres unmarked) [4’-OH-flurbiprofen, 4′‐hydroxyflurbiprofen] ): 1.8

====

assay: Plasma pharmacokinetics of cocktail index drugs and their metabolites, five-phase crossover trial;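 further: parameters derived from plasma drug levels quantified by LC–MS with internal standards after acetonitrile protein precipitation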; details: human, plasma, oral, AUC0-23h, geometric mean (geometric CV), phase V: gemfibrozil 600 mg b.i.d. 3 days pretreatment + full cocktail
observable: AUC(0-t) (ng·h/mL)
Give the quantity in ng·h/mL, number only.

Recorded AUC(0-t) (compound COc1ccc2nc(S(=O)(=O)Cc3ncc(C)c(OC)c3C)[nH]c2c1 ): 124
